Taken from ChEMBL document CHEMBL4350994.

test system: H5N1 subtype; assay: Antiviral activity against H5N1 subtype infected in MDCK cells after 2 to 3 days; format: functional, organism-based; conditions: Influenza A virus
pEC50: −log10 of the molar value.
assayEndpoint: pEC50

Looking for the measured pEC50 of C=C1CC[C@@H]2[C@](C)(CO)[C@H](O)CC[C@@]2(C)[C@@H]1C/C=C1/C(=O)OC[C@H]1OC(=O)CCCCC1CCSS1 (stereo partly specified) , can you help?
4.82 to 5.14

----------
biological target: Bile acid receptor (Homo sapiens, UniProt Q96RI1); experiment: Antagonist activity at FXR (unknown origin)
Sequence (Q96RI1 whole entry, the tested form may be a part): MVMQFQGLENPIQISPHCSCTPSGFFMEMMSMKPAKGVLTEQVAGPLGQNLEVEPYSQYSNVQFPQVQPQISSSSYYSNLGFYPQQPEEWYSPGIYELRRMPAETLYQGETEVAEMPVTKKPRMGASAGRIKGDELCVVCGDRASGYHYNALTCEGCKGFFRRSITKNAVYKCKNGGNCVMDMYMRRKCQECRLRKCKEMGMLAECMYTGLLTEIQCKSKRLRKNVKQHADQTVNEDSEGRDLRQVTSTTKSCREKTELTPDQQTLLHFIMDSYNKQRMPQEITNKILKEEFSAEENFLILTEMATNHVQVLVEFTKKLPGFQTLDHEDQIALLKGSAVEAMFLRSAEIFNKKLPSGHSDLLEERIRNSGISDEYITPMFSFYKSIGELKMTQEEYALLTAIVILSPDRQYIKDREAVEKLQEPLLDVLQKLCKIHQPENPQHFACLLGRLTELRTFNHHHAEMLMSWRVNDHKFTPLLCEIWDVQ
assayEndpoint: IC50

Consider the following illustrative entries.
C=C1CC[C@@H]2[C@](C)(CO)[C@H](O)CC[C@@]2(C)[C@@H]1C/C=C1/C(=O)OC[C@H]1O [ANDROGRAPHOLIDE]    9700 nM
C=C1CC[C@@H]2[C@](C)(CO)[C@H](O)CC[C@@]2(C)[C@@H]1C/C=C1/C(=O)OC[C@@H]1Oc1ccccc1OC    550 to 2000 nM

Next:
For the compound "C=C1CC[C@@H]2[C@]3(C)COC(C)(C)O[C@@H]3CC[C@@]2(C)[C@@H]1C/C=C1/C(=O)OC[C@@H]1Oc1ccc([N+](=O)[O-])cc1OC" , what IC50 is on record?
550 to 2000 nM

----------
molecular target: Bile acid receptor (Homo sapiens, UniProt Q96RI1); test: Antagonist activity at Gal4 DBD-fused human FXR LBD expressed in human HepG2 cells after 8 hrs by luciferase reporter gene assay; assay type: cell-based
assayEndpoint: pIC50
Give bare numbers, as −log10 of the molar value.

For the compound shown here, C=C1CC[C@@H]2[C@](C)(CO)[C@H](O)CC[C@@]2(C)[C@@H]1C/C=C1/C(=O)OC[C@H]1O [ANDROGRAPHOLIDE] , give the reported pIC50.
5.01
